Assay: yeast display, Sf9 membrane polyspecificity reagent, FACS + sequencing; frameworks hold sequencing errors

| sequence data | polyreactivity (PSR sort gate) |
| --- | --- |
| QVQLVESGGGLVQAGGSLRLSCAASGSISYFNAMGWYRQAPGKERELVAAIDVSGDSTYYADSVKGRCTISRDNAKISLYLQMNSLKPEDTAVYYCAKDPTSWYRTFGHSYYWYDYWGQGTQVTVSS | low polyreactivity |
| QVQLVESGAGLVQAGGSLRLSCAASGSIINRNAMGGYRQAPGKERELVAAITRRGGSTYYADSVKGRFTISRDNAKNTVYLQKYSLKPEDTAVYYCNAVKALSSWSYEYWGQGTQGTVSS | high polyreactivity |
| QVQLVESGGGLVQAGGSLRLTCAASGFTFGRYTMGWYRQAPGKERELVAAISGRGSRTYYADSVKGRFTISRDNAKNTVYLQMSSLKPVDTAVYYCAADVNVRSDMDYWGQGTQVTVSS | high polyreactivity |
| QVQLVESGGGLVQAGGSLRLSCAASGYTFGYYAMGWYRQAPGKERELVAAISYSGGTTYYADSVKGRFTISRDNAKNTVYLQMNSLKPEDTAVYYCNKRYWVRTGKVSSYDYWGQGTQVTVSS | high polyreactivity |
| QVQLVESGGGLVQAGGSLRLSCAASGRIFSIYAMGSYRQAPGKERELVAAISFRGTSTYADSVKGRFTISRDNAKNTVYLQMNSLKPEDTAVYYCAVTGFDFLWPSLGGELDYWGQGTQVTVSS | low polyreactivity |
| QVQLVESGGGLVQAGGSLRLSCAASGSTFRGYAMGWYRQAPGKERELVAAITGSGDRTRYADSVKGRFTISRDNAKNTVYLQMNSLKPEDTAVYYCAKVWPHWAYYSWGQGTQVTVSS | high polyreactivity |
| QVQLVETGGGLVQSGGSLRLSCAASGSTFTYYAMGWYRQAPGKERELVAAIDFSGTSTYYADSVKGRFTISRDNAKNTVYLQMNCLKPEDTAVYFCAASQSLYWGGAHDNGEFGYWGQGTQVTVSS | low polyreactivity |
| QVQLVESGGGLVQAGGSLRLSCAASGFIFRPYVMGWYRQAPGTERELVAAISRSGSSTYYADSVKGRFTISRDNAKNTVYLQMNSLKPEDTAVYYCARRTSQEFDYWGQGTQVTVSS | high polyreactivity |
| QVQLVESGGGLVQAGGSLRLSCAASGFIFSGYAMGWYRQAPGKERELVATISGSGGSTYYADSVKGRFTISRDNAKNTVYLQMNSLKPEDTAVYYCAKRSIVGYRYSGYDYWGQGTQVTVSS | high polyreactivity |
| QVQLVESGGGLVQAGGSLRLSCAASGRIFYSNAMGWYRQAPGKERELVAAITGSGGRTHYADSVKGRFTISRDNAKNTVYLQMNSLKPEDTAVYYCAKDGYFPEFDYWGQGTKVTVSS | high polyreactivity |
| QVQLVESGGGLVQAGGSLRLSCAASGGTFAGYAMGWYRQAPGKERELVAAIRWSGGRTYYADSVKGRFTISRDNAKNSVYLQMNSLKPEDTAVYYCAANGHGRVYFEMDYWGQGTQVTVSS | high polyreactivity |

====

Test: yeast display, Sf9 membrane polyspecificity reagent, FACS + sequencing; frameworks hold sequencing errors

| sequence data | polyreactivity (PSR sort gate) |
| --- | --- |
| QVQLQESGGGLVQAGGSLRLSCAASGTISTDSYMGWYRQAPGKERKFVATIGYGGITYYADSVKGRSTISRDSAKNTVYLQMNSLKPEDTAVYYCAVNSYYPDHYWYWGRGTQVTVSS | high polyreactivity |
| QVQLVESGGGLVQAGGSLRLSCAASGRTFRDYVMGWYRQAPGKERELVAVISYRGSTYYADSVKGRFTISRDNAKNTVYLQMNSVKPEDTAVYYCAGRFSLEGGYYWGQGTQVTVSS | low polyreactivity |
| QVQLVESGGGLVQAGGSLRLSCAASGSTFRWNAMGWYRQAPGKETELVAAITRSVGSTYYADSVKGRFTISRDNAKNTVYLQMNSLKPEDTAVYYCAADFYYYGFDYWGQGTQVTVSS | low polyreactivity |
| QVQLVESGGGLVQAGGSLRLSCAASGSTFAASVMGWYRQAPVKERELVAAISTSGGGTYYADSVKGRFTISRDNAKNTVYLQMNSLIPEDTAVYYCAADYGSGSVSYDYWGQGTQVTVSS | low polyreactivity |
| QVQLVESGGGLVQAGGSLRLSCAACGRTFYNYAMGWYRQAPGKERELVAAITRGGSTYYADSVKGRFTISRDNAKNTVYLQMNSLKPEDTAVYYCNAVFPYEHEEYDYWGQGTQVTVSS | high polyreactivity |
| QVQLVESGGGLVQAGGSLRLSCAASGFIFSINAMGWYRQAPGKERELVADIDTGGSTNYADSVKGRFTISRDNAKNTVYLQMNSLKPEDTAVYYCAAQWYQYPSYISYFTSYDYWGQGTQVTVSS | low polyreactivity |
| QVQLVESGGGLVQAGGSLRLSCAASGSIFEIYAMGWYRQAPGKERELVASITWSGGSTYYADSVKGRFTISRDNAKNTVYLQMNSLKPEDTAVYYCATDKLYGRTVRMDYWGQGTQVTVSS | low polyreactivity |
| QVQLVESAGGLDQAGGSLRLSCAASGFTFSVYVMGWYRQAPGKERELVASISKRGGSTTYADSVKGRFTISRDNAKNTVYLQMNSLKPEDTAVYYCAALGPGYYWGQGTQVTVSS | high polyreactivity |
| QVQLVESGGGLVHAGGSLRLSCAASGYTFGNNAMGWYIQAPGKERELVASIRTNGGTTYYADSVKGRFTISRDNAKNTVYLQMNSLKPEDTAVYYCNAYRGYEYDYWGQGTQVTVSS | low polyreactivity |
| QVQLVESGGGLVQAGGSLRLSCADSGFTFTYYTMGWYRQAPGKERELVAAISGSGGSTYYADSVKGRFTISRDNAKYTVYLQMNSQKPEDSAVYYCAARSRWQSYRLKNHGTYKHDYWGQGTQVTVSS | high polyreactivity |
| QVQLVESGGGLVQAGGSLRLSCAASAFIFSRNAMGWYRQAPGKDRELVAAISLRGGSTSYADSVKGRFTISRDTAKNTVYIQMNSLKPEDTAVYYCAKYDRNTYGYWGQGTEVTVSS | low polyreactivity |
| QVQLVESGGGLVQAGGSLRLSCAAYGRIFKYYVMGWYRPAPGKERELVATISSGSGTNYADSVKGRFTISRDNAKNTVYLQMNSLKPEDTAVYYCAARWTPRVRGYNYWGQGTLVTVSS | high polyreactivity |
| QVQLVESGGGLVQAGGSLRLICAASGNIFSFNDMGWSRPAPGKERELVASITSGGRTNYADSVMGRFTISRDNAKNTVYLQMNSLKPEDTAVYYCAADYSVPTSQAYDYWGQGTQVTVSS | low polyreactivity |
| QLQLVETGGGIVQAAGSLRLSCAASGFTYNRYAKGWYRKAPGKERELVAAISRGGTTYADSVKGRFTISRDNAKNTVYLQMNSLKPEDTAVYYCNRLRYGYPQEFGYWGQGTQVTVSS | high polyreactivity |
| QVQLVESGGGLVQAGGSLRLSCAASGNTFDYYAMGWYRQAPGKERELVAAIDSGTTTYYADSVKGRFTISRDNAKNTVYLQMNSLKPEDTAVYYCAAEYAYVPGWYEYWGQGTQVTVSS | high polyreactivity |
| QVQLVESGVGLVQAGGSLSLSCAASGRLFNYYAMGWYRQAPGKERELVAAISSSGGRTYYADSVKGRFTISRDNAKNTVYLQMNCLKPEDTAVFYCAAYDSLRYSTYDYWGQGTQVTVSS | high polyreactivity |
| QVQLVESGGGLVQAGGSLRLSCAASGSTLKYYTMGWYRQAPGKERELVAAISWSGGRTYYADSVKGRFTISRDNAKNTVYLQMNSLKPEDTAVYYCNARRTFPRYDRKYESWGQGTQVTVSS | high polyreactivity |
| QVQLVESGGGLVQPGGSLRLSCAASGFIFRNYAMGWYRQAPGQERELVAAITRSGDNTYYADSVKGRFTISRDNAKNTVYLQMNSLKPEDTAVYYCAARDVQYQQALGGDYWGQGTQVTVSS | low polyreactivity |
| QDQHVESVGGLVQAGGSLLLSCAASGFTLRGYALGWDRQAPGKERELVADISGGGSTDYADSVKGRFTISRDNAKNTVYLQMNSLKPLDTAVYYCAAYGYLWWEMDYWGQGTQVTLSS | high polyreactivity |
| QVQLVESGGGLVQAGGSLRLRCASSGRTFQYYAMGWYRQAPGKEMELVAAISWSGGSTYYADSVKGRFTISRDNAKNTVYLQMNSLKPEDTAVYYCAAVVGRNGTRSYGYWGQGTQVTVSS | high polyreactivity |
| QVQLVESGGGLVQAGGSLRLSCAASGSIFFQNAMGWYRQAPGKESEFVAAITWRGASTYYADSVKGRFTISRDNATNTVYLQMNSLKPEDTAVYYCAARQHYYYGWYYYWGQGTQVTVSS | high polyreactivity |
